// reported T/C per item
System: BDF1 mice, P388/VCR leukemia ip, median survival T/C
MEASUREMENT NOTES: NCI In Vivo Anticancer Drug Screen. Data for tumor model P388 Leukemia resistant to Vincristine; NSC 67574 (intraperitoneal) in B6D2F1 (BDF1) mice
EXPERIMENTAL SETUP: endpoint: median survival time; dose: 12.0 mg/kg/injection; schedule: Q01DX010 (ip); vehicle: saline; higher = longer survival
Inconclusive results and toxic doses are left out.

See these solved cases before continuing.
CCCNC(=NC)c1ccc(NC(=O)c2ccc(C(=O)Nc3ccc(C(=NC)NCCC)cc3)cc2)cc1 : 118 % of control
O=C(Nc1ccc(C2=NCCN2)cc1)c1ccc(C(=O)Nc2ccc(C3=NCCN3)cc2)c([N+](=O)[O-])c1 : 111 % of control
CC1CN=C(c2ccc(NC(=O)c3cccc(C(=O)Nc4ccc(C5=NCC(C)N5)cc4)c3)cc2)N1 (centres undefined) : 104 % of control

Reported T/C, compound Nc1ncnc2[nH]ncc12 : ____
119 % of control
